Entry source: patent US11834453B2

# target desc: ErbB2 with Exon 20 YVMA insertion (HER2-YVMA) (Homo sapiens (Human), UniProt P04626, INS775YVMA)
# Sequence (P04626 other isoform, or with tags, fused parts or gaps ins YVMA behind 775): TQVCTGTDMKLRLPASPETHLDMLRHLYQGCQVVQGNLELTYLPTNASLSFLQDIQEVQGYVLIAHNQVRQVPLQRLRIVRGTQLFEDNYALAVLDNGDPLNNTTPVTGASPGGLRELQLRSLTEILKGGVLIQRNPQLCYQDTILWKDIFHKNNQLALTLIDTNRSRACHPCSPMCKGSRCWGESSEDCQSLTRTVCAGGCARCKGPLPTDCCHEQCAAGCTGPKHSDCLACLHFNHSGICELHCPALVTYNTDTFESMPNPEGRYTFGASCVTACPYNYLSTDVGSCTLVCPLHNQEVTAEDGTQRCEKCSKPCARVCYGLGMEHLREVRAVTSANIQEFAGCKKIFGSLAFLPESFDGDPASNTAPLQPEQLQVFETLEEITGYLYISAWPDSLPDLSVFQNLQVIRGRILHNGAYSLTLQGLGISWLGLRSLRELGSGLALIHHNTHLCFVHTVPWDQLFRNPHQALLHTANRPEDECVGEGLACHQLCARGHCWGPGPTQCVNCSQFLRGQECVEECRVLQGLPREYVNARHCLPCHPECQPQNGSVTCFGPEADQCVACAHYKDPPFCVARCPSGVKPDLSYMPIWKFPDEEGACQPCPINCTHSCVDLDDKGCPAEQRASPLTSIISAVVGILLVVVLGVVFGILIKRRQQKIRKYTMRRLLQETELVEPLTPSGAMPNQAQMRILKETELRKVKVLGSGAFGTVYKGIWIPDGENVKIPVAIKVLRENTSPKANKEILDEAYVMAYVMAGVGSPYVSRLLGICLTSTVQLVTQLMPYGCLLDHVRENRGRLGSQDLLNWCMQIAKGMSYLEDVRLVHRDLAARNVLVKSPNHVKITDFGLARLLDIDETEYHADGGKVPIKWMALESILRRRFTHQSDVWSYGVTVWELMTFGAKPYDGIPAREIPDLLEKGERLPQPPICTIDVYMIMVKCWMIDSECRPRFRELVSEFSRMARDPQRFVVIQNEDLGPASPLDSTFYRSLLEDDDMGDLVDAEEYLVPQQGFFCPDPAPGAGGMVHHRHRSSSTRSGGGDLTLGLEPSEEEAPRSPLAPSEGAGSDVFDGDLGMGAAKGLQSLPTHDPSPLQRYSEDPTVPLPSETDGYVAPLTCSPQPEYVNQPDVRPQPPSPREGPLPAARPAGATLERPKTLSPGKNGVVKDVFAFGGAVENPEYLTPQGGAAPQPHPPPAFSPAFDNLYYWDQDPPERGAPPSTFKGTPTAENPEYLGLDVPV
# protocol summary: Cellular phosphorylation assay, constitutive ErbB2 phosphorylation (Y1196) in engineered NIH 3T3 cells, Assay 4
Listing of entries alongside the reported IC50.
# output: bare number, implied unit nM

Input: Fill blank: measured IC50 of the molecule Cc1cc(Nc2ncnc3cnc(-c4ccccn4)nc23)ccc1Oc1ccc2c(c1)ncn2C is ____.
Output: 9.1

Input: Value lookup for IC50; key = Cc1cc(Nc2ncnc3cnc(N4C[C@@H]5[C@@H](C#N)[C@@H]5C4)nc23)ccc1Oc1ccc2c(c1)ncn2C
Output: 24.8

Input: Which measured IC50 value corresponds to Cc1cc(Nc2ncnc3cnc(N4CCO[C@H](C)C4)nc23)ccc1Oc1ccc2c(c1)ncn2C ?
Output: 16.8

* * *

Documented pIC50 across a set of compounds
# target desc: ErbB2 with Exon 20 YVMA insertion (HER2-YVMA) (Homo sapiens (Human), UniProt P04626, INS775YVMA)
# protocol summary: Cellular phosphorylation assay, constitutive ErbB2 phosphorylation (Y1196) in engineered NIH 3T3 cells, Assay 4
Scale note: pIC50 = -log10(concentration in M).

{"compound": "Cc1cc(Nc2ncnc3cnc(N4C[C@@H](O)C(F)(F)C4)nc23)ccc1Oc1ccc2c(c1)ncn2C", "recorded measurement": 7.60}
{"compound": "Cn1cnc2cc(Oc3ccc(Nc4ncnc5cnc(N6CC7C8CCC(O8)C7C6)nc45)cc3Cl)ccc21.O=C(O)C(F)(F)F (stereo not shown)", "recorded measurement": 7.58}
{"compound": "Clc1cc(Nc2ncnc3cnc(N4CCOC5(CC5)C4)nc23)ccc1Oc1ccn2ncnc2c1", "recorded measurement": 7.15}

Turning now to a further record.
Input: // returns reported pIC50 for input Cc1cc(Nc2ncnc3cnc(N4[C@H]5CC[C@@H]4[C@H](O)C5)nc23)ccc1Oc1ccc2c(c1)ncn2C (racemic)
Output: 7.50

* * *

# target desc: ErbB2 insYVMA (HER2-YVMA, SEQ ID NO: 2) (Homo sapiens, UniProt P04626, INS775YVMA/P1170A)
# Sequence (P04626 with tags, fused parts or gaps INS775YVMA/P1170A limits assumed): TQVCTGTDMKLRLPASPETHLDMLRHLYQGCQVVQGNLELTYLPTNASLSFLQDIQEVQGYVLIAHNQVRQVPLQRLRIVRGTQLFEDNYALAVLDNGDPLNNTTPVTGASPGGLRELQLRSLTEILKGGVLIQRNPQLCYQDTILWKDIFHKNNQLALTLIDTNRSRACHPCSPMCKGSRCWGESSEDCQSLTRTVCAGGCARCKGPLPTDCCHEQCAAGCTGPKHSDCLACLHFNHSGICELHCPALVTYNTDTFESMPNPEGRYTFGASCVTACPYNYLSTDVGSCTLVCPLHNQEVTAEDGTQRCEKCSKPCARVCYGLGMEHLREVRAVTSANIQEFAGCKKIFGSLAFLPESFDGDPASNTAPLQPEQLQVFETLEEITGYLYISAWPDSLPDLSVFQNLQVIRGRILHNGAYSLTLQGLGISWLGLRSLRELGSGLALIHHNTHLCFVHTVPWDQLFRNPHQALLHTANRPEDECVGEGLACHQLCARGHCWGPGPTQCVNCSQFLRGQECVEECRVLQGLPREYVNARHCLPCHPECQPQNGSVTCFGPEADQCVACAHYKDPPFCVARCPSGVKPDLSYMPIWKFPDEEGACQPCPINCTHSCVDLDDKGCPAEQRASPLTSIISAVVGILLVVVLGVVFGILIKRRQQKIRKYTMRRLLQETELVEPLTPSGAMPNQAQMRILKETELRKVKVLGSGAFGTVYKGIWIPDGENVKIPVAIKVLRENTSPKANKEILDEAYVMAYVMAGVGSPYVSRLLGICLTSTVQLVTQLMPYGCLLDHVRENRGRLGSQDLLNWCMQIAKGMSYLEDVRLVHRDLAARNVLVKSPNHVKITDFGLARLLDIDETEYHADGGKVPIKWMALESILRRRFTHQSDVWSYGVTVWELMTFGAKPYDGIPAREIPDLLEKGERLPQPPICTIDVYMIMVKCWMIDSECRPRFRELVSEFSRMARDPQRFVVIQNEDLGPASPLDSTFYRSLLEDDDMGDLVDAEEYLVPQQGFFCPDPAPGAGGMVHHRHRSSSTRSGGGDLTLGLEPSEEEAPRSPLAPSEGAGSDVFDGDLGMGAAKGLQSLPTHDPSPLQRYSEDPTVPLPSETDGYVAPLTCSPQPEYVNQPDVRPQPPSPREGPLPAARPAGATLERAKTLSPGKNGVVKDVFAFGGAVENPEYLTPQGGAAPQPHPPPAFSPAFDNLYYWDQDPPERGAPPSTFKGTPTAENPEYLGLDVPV
# protocol summary: biochemical
# experimental setup: ErbB2 insYVMA enzyme assay; read-out: Assay 1 IC50
Entries annotated with measured IC50
Number only, in nM; omit the unit.

Below: 3 compounds and their reported IC50.
{"compound": "Cc1cc(Nc2ncnc3cnc(N4CCCC5(COC5)C4)nc23)ccc1Oc1ccc2c(c1)ncn2C [Example 45]", "IC50 (nM)": 31}
{"compound": "Cc1cc(Nc2ncnc3cnc(N4CCC[C@@]5(CCO5)C4)nc23)ccc1Oc1ccc2c(c1)ncn2C [Example 386]", "IC50 (nM)": 82.1}
{"compound": "O[C@@H]1CN(c2ncc3ncnc(Nc4ccc(Oc5ccn6ncnc6c5)c(Cl)c4)c3n2)CC1(F)F [Example 323]", "IC50 (nM)": 12.2}

Input: Entry under review: Cc1c(Oc2ccn3ncnc3c2)ccc(Nc2ncnc3cnc(N4CC[C@@H](O)C4)nc23)c1F [Example 312] . Reported IC50?
Output: 38.9

Input: Sample Cc1cc(Nc2ncnc3cnc(N4CCN(C5COC5)CC4)nc23)ccc1Oc1ccc2c(c1)ncn2C [Example 159] — what was its IC50?
Output: 28.7

Input: Record request: IC50 value, item Cc1cc(Nc2ncnc3cnc(NC45CC(C4)C5)nc23)ccc1Oc1ccc2c(c1)ncn2C [Example 18]
Output: 122

Input: // query IC50 value for entry Cc1cc(Nc2ncnc3cnc(N4CC[C@@H](C#N)C4)nc23)ccc1Oc1ccn2ncnc2c1 [Example 404]
Output: 22.8

Input: Fill blank: measured IC50 of the compound Cn1cnc2cc(Oc3ccc(Nc4ncnc5cnc(N6CCN(C7COC7)CC6)nc45)cc3Cl)ccc21 [Example 485] is ____.
Output: 21.7

Input: # query: IC50 of entry FC(F)[C@H]1CCN1c1ncc2ncnc(Nc3ccc(Oc4ccn5ncnc5c4)c(Cl)c3)c2n1 [Example 410]
Output: 14.7

Input: Bench note: what IC50 did Cc1cc(Nc2ncnc3cnc(N4CCC5(CCOC5)C4)nc23)ccc1Oc1ccc2c(c1)ncn2C (stereo not drawn) [Example 15] show?
Output: 21.4

* * *

efflux ratio at 2 h, 1 μM overview
# target desc: UniProtKB P08183
# Sequence (P08183 whole entry): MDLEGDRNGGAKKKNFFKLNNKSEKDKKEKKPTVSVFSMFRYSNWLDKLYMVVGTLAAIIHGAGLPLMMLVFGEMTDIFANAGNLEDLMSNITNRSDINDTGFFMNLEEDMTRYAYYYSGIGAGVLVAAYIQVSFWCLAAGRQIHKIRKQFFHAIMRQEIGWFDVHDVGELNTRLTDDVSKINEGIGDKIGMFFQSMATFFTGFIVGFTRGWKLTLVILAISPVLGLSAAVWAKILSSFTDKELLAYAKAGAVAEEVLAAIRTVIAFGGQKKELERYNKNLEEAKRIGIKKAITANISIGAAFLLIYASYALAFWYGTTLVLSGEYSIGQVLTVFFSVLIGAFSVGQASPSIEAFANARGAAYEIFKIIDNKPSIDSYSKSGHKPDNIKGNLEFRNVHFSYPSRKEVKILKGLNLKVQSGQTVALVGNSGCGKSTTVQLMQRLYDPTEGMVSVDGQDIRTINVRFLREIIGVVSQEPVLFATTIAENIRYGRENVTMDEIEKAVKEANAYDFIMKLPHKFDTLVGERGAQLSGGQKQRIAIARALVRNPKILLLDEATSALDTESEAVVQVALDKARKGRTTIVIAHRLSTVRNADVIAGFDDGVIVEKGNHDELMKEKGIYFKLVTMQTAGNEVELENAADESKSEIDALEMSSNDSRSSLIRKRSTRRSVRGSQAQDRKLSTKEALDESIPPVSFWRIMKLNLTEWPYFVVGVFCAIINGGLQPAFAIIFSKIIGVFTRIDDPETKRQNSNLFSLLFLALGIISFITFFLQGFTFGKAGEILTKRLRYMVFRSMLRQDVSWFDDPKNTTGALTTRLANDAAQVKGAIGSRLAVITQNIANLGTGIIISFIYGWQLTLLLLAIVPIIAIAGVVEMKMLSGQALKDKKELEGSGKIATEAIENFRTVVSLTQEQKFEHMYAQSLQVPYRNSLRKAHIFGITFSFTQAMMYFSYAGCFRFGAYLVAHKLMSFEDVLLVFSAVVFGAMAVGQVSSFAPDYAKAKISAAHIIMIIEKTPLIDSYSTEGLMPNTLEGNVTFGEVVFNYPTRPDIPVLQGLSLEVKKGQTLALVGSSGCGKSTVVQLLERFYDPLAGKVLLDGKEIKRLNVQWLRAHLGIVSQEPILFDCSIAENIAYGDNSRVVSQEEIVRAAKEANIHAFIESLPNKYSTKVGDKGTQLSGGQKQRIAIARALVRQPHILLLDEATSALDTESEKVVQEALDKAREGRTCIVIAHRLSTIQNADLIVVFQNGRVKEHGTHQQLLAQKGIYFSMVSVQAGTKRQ
# protocol summary: MDR1 transfected LLC-PK1 permeability/efflux, Assay 6
# experimental setup: pig, LLC-PK1, Assay 6 Pe Ratio, efflux ratio Papp(B-A)/Papp(A-B), MDR1 transfected LLC-PK1
Give the value as a plain number.

Please review the entries below; each comes with its answer.
{"compound": "COCCOC1CN(c2ncc3ncnc(Nc4ccc(Oc5ccc6c(c5)ncn6C)c(C)c4)c3n2)C1", "recorded measurement": 2.9}
{"compound": "Cc1cc(Nc2ncnc3cnc(N4C[C@H]5CCCN5C4=O)nc23)ccc1Oc1ccc2c(c1)ncn2C", "recorded measurement": 11.6}

Now look at this one.
Input: Entry under review: Cc1cc(Nc2ncnc3cnc(N4CC5C6CCC(O6)C5C4)nc23)ccc1Oc1ccc2c(c1)ncn2C (stereo not shown) . Reported efflux ratio at 2 h, 1 μM?
Output: 1.2

* * *

# target desc: ErbB2 with Exon 20 YVMA insertion (HER2-YVMA) (Homo sapiens (Human), UniProt P04626, INS775YVMA)
# protocol summary: Cellular phosphorylation assay, constitutive ErbB2 phosphorylation (Y1196) in engineered NIH 3T3 cells, Assay 4
pIC50: −log10 of the molar value.
met means recorded pIC50 is 7 or above; not met means it is below 7.

Before answering, review these 8 worked examples.
{"molecule": "Cc1c(Oc2ccc3c(c2)ncn3C)ccc(Nc2ncnc3cnc(N4CCOCC4)nc23)c1F", "cat": "met"}
{"molecule": "Cn1cnc2cc(Oc3ccc(Nc4ncnc5cnc(N6CC[C@@H]7COC[C@H]76)nc45)cc3Cl)ccc21", "cat": "met"}
{"molecule": "O[C@H]1C[C@@H]2C[C@H]1CN2c1ncc2ncnc(Nc3ccc(Oc4ccn5ncnc5c4)c(Cl)c3)c2n1", "cat": "not met"}
{"molecule": "Clc1cc(Nc2ncnc3cnc(N4CCN5CCOC[C@H]5C4)nc23)ccc1Oc1ccn2ncnc2c1", "cat": "met"}
{"molecule": "Cc1cc(Nc2ncnc3cnc(N[C@@H]4CCN(C)C[C@@H]4F)nc23)ccc1Oc1ccc2c(c1)ncn2C", "cat": "met"}
{"molecule": "CSc1ncc2ncnc(Nc3ccc(Oc4ccc5c(C)onc5c4)c(C)c3)c2n1", "cat": "not met"}
{"molecule": "CN(CC(C)(C)O)c1ncc2ncnc(Nc3ccc(Oc4ccc5c(c4)ncn5C)c(Cl)c3)c2n1", "cat": "met"}
{"molecule": "Cc1cc(Nc2ncnc3cnc(NC4COC4)nc23)ccc1Oc1ccc2c(c1)ncn2C", "cat": "met"}

Input: Does the reported pIC50 for Cc1cc(Nc2ncnc3cnc(NOCC(C)(C)O)nc23)ccc1Oc1ccc2c(c1)ncn2C fall at or above the 7 mark?
Output: met

Input: Exam item: decide whether the reported pIC50 for Cc1cc(Nc2ncnc3cnc(S(C)(=O)=O)nc23)ccc1Oc1ccc2c(C)onc2c1 is at least 7.
Output: not met

Input: Threshold query (pIC50 >= 7) on Cc1c(Oc2ccn3ncnc3c2)ccc(Nc2ncnc3cnc(N4CC[C@H]4C(C)(C)O)nc23)c1F
Output: not met

Input: Could you tell me if the measured pIC50 of Cc1c(Oc2ccc3c(c2)ncn3C)ccc(Nc2ncnc3cnc(N4CC5CC4CO5)nc23)c1F (stereo not drawn) reaches 7 or more?
Output: met

Input: Form field: pIC50 at least 7? Entry: Clc1cc(Nc2ncnc3cnc(N4CCOCC4)nc23)ccc1Oc1ccn2ncnc2c1
Output: met

* * *

# target desc: ErbB2 WT (Homo sapiens (Human))
# Sequence (P04626 23-1255): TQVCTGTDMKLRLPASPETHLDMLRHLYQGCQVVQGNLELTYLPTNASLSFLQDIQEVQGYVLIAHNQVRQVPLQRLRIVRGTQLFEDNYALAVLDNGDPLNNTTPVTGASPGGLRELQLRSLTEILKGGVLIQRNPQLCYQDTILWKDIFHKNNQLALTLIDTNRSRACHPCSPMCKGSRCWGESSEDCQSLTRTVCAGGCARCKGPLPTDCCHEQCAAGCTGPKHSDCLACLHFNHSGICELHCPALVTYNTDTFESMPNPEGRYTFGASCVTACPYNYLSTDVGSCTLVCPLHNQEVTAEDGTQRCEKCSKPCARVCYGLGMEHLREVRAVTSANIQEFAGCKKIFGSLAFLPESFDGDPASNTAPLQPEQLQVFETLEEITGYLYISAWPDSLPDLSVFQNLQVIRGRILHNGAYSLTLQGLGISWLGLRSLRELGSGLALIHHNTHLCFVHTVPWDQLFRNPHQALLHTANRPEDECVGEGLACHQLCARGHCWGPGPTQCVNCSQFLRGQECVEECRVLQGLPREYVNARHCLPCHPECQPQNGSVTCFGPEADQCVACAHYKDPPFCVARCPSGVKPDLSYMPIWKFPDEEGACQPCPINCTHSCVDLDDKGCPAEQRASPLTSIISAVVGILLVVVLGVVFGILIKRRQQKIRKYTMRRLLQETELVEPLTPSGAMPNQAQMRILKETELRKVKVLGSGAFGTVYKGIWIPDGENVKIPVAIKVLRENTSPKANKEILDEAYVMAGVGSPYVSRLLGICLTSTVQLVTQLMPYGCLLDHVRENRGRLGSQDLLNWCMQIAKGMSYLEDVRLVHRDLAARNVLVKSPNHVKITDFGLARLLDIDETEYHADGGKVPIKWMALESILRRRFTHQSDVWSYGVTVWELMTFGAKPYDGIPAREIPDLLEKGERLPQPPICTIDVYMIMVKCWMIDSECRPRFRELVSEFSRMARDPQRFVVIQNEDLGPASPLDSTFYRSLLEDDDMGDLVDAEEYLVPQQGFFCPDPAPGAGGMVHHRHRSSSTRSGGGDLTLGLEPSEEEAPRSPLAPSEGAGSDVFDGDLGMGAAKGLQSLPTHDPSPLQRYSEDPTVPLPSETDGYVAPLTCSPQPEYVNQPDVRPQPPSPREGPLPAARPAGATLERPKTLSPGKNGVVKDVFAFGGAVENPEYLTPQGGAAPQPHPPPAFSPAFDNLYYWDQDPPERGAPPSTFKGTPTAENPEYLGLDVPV
pIC50: −log10 of the molar value.
// Not fulfilled strictly below 7 in pIC50; Fulfilled otherwise

Example cases with answers are listed next.
{"compound": "Cc1cc(Nc2ncnc3cnc(N4CC[C@@H](C(C)(C)O)C4)nc23)ccc1Oc1ccn2ncnc2c1", "cat": "Fulfilled"}
{"compound": "Cc1cc(Nc2ncnc3cnc(N4C5CCC4COC5)nc23)ccc1Oc1ccc2c(c1)ncn2C", "cat": "Fulfilled"}
{"compound": "Cc1cc(Nc2ncnc3cnc(N4CC[C@]5(CCO5)C4)nc23)ccc1Oc1ccc2c(c1)ncn2C", "cat": "Fulfilled"}
{"compound": "Cc1cc(Nc2ncnc3cnc(O[C@H]4CCN(C)C[C@@H]4F)nc23)ccc1Oc1ccc2c(c1)ncn2C", "cat": "Not fulfilled"}
{"compound": "Cc1cc(Nc2ncnc3cnc(N4CCC[C@H]4C(F)(F)F)nc23)ccc1Oc1ccc2c(c1)ncn2C", "cat": "Fulfilled"}

Input: Item Cc1cc(Nc2ncnc3cnc(N4CC5CC(C4)N5C)nc23)ccc1Oc1ccc2c(c1)ncn2C with pIC50 of 7 or above?
Output: Not fulfilled

Input: Tell me whether pIC50 is at least 7 here: Cc1cc(Nc2ncnc3cnc(S(C)(=O)=O)nc23)ccc1Oc1ccc2c(C)onc2c1
Output: Fulfilled

Input: pIC50 >= 7 for Cc1cc(Nc2ncnc3cnc(N4CCC(C)(O)CC4)nc23)c(Cl)cc1Oc1ccc2c(c1)ncn2C ?
Output: Not fulfilled

Input: Evaluate Cc1cc(Nc2ncnc3cnc(N4CC5CC5(O)C4)nc23)ccc1Oc1ccc2c(c1)ncn2C (centres unmarked) : pIC50 at minimum 7?
Output: Fulfilled

Input: State whether the measured pIC50 reaches 7, counting equality as reaching it, for Cc1cc(Nc2ncnc3cnc(N4CCN5CCOC[C@H]5C4)nc23)ccc1Oc1ccc2c(c1)ncn2C
Output: Fulfilled

Input: Is it the case that [2H]c1nc(Nc2ccc(Oc3ccc4c(c3)ncn4C)c(C)c2)c2nc(N3CCOCC3)nc([2H])c2n1 has pIC50 reaching or exceeding 7?
Output: Fulfilled

Input: Record Cc1cc(Nc2ncnc3cnc(N[C@@H]4CCN(C)C[C@@H]4F)nc23)ccc1Oc1ccc2c(c1)ncn2C ; criterion: pIC50 no lower than 7. Met?
Output: Fulfilled

Input: Quick check: does Cc1cc(Nc2ncnc3cnc(N(C)Cc4ccccc4)nc23)ccc1Oc1ccc2c(c1)ncn2C have pIC50 greater than or equal to 7?
Output: Not fulfilled

Input: Hi, just wondering whether Cc1cc(Nc2ncnc3cnc(N4C[C@H](O)C(F)(F)C4)nc23)ccc1Oc1ccc2c(c1)ncn2C shows pIC50 of 7 or higher.
Output: Fulfilled

Input: Does pIC50 meet or surpass 7 for Cc1cc(Nc2ncnc3cnc(O[C@H]4CN(C)CC[C@H]4F)nc23)ccc1Oc1ccc2c(c1)ncn2C ?
Output: Not fulfilled

Input: Hello, I need to know if Cc1cc(Nc2ncnc3cnc(N4CC[C@H](S(C)(=O)=O)C4)nc23)ccc1Oc1ccc2c(c1)ncn2C has measured pIC50 not below 7. Thanks!
Output: Fulfilled

Input: Record Cc1cc(Nc2ncnc3cnc(N4[C@H]5CC[C@@H]4[C@@H](O)C5)nc23)ccc1Oc1ccc2c(c1)ncn2C (racemic) ; criterion: pIC50 no lower than 7. Met?
Output: Fulfilled

Input: State whether the measured pIC50 reaches 7, counting equality as reaching it, for CON1CCN(c2ncc3ncnc(Nc4ccc(Oc5ccc6c(c5)ncn6C)c(Cl)c4)c3n2)CC1.O=C(O)C(F)(F)F [Example 141, 2,2,2-trifluoroacetate]
Output: Fulfilled

Input: Quick check: does Cc1cc(Nc2ncnc3cnc(N4C[C@@H](O)C(F)(F)C4)nc23)ccc1Oc1ccc2c(c1)ncn2C have pIC50 greater than or equal to 7?
Output: Fulfilled

Input: Hi team, for O[C@H]1C[C@@H]2C[C@H]1CN2c1ncc2ncnc(Nc3ccc(Oc4ccn5ncnc5c4)c(Cl)c3)c2n1 , is the recorded pIC50 at or above 7?
Output: Fulfilled

Input: Hi team, for Cc1cc(Nc2ncnc3cnc(O[C@H]4CCN(C)C[C@H]4F)nc23)ccc1Oc1ccc2c(c1)ncn2C , is the recorded pIC50 at or above 7?
Output: Not fulfilled

Input: Evaluate O[C@H]1C[C@H]2C[C@@H]1CN2c1ncc2ncnc(Nc3ccc(Oc4ccn5ncnc5c4)c(Cl)c3)c2n1 : pIC50 at minimum 7?
Output: Fulfilled
